- test.protocol: viability loss with induced miR-34 in A549 – imaging, A549 dox-inducible miR-34, nuclei and caspase counts, primary screen (AID 1347080)
- experimental.parameters: A549 miR-34 inducible, Hoechst nuclei count, 48 h; measured here: total cells with miR-34 induction; stronger effect = lower value
endpoint.name: cell count
One number for each entry.

Cc1ccc2c(=O)c3cccc(CC(=O)O)c3oc2c1C = 6780
CCCCCCCCCCCCC/C=C/[C@H](O)[C@@H](CO)NC(=O)CCCCCCCCCCCCCCCCCCCCCCC = 5890
CCCCC[C@H](O)/C=C/[C@@H]1[C@H](CCCCCCC(=O)O)[C@@H](O)C[C@H]1O = 6250

Respectfully, I request cell count for each entry included below.
1. O[C@H](CNC[C@@H](O)[C@H]1CCc2cc(F)ccc2O1)[C@@H]1CCc2cc(F)ccc2O1
2. CCCCCCC[C@H](O)/C=C/[C@H]1[C@H](O)CC(=O)[C@@H]1C/C=C\CCCC(=O)O

1: 3230; 2: 5790

====

- test.protocol: growth inhibition of DIPG cells – cell-based, MIPE5.0 library, qHTS (AID 1347068);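 on IC50: cells exposed to compound for 48 hours before viability readout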
- experimental.parameters: SU-DIPG-XXV viability
Inconclusive results are not listed. Activity calls are given as the source filed them. No cut-off is given here; in the data, nearly all actives have IC50 up to about 30 µM.
endpoint.name: IC50

Some compounds with known IC50 results, for comparison:
NC1(C(=O)N[C@@H](CCO)c2ccc(Cl)cc2)CCN(c2ncnc3[nH]ccc23)CC1 = 3.72 µM (active)
Cc1cc(C)c(S(=O)(=O)N(CCc2cccc(Br)c2)Cc2ccc(-c3cccc(S(C)(=O)=O)c3)cc2)c(C)c1 = inactive
Cc1ccc(NC(=O)c2ccc(CN3CCNCC3)cc2)cc1Nc1nccc(-c2cccnc2)n1 = inactive
C=CC(=O)N[C@H]1CN(c2nc(Nc3cn(C)nc3OC)c3ncn(C)c3n2)C[C@@H]1F = 16.6 µM (active)
CSc1ccc(C(=O)/C=C/c2cc(C)c(OC(C)(C)C(=O)O)c(C)c2)cc1 = inactive
CN(C)CC(=O)N1CCC(c2ccc(NC(=O)c3ncc(C#N)[nH]3)c(C3=CCCCC3)c2)CC1 = inactive
C[N+](C)(C)CC(=O)O = inactive
CN1CCN(c2ccc3nc(-c4cc(C(C)(C)C)c(OCCCC(=O)NCCCN=[N+]=[N-])c(C(C)(C)C)c4)[nH]c3c2)CC1 = 9.34 µM (active)
CCCCCCCCCCCCCCCC(=O)O[C@@H]1[C@@H](O)[C@@H](O)[C@@H]([C@H](NC(=O)[C@@H]2C[C@@H](CCC)CN2C)[C@H](C)Cl)O[C@@H]1SC = inactive
Cc1ccc(NC(=O)c2ccc(CN3CC[C@H](N(C)C)C3)c(C(F)(F)F)c2)cc1Nc1nccc(-c2cncnc2)n1 = inactive

I need IC50 for every entry listed below, if you could help.
1. C=C1c2cccc(O)c2C(O)=C2C(=O)[C@@]3(O)C(O)=C(C(N)=O)C(=O)[C@@H](N(C)C)[C@@H]3[C@@H](O)[C@H]12
2. N#Cc1c(C2CCNCC2)cc(-c2c(O)cccc2OCC2CC2)nc1N
3. CC1(C)CCC2(CC1)N[C@@H](C(=O)N[C@@H]1CC[C@@H](C(N)=O)OC1)[C@H](c1ccnc(Cl)c1F)[C@]21C(=O)Nc2cc(Cl)ccc21
4. O=C(CN1C(=O)C2(CCCC2)NC[C@H]1c1cc(F)cc(F)c1)Nc1ccc2c(c1)C[C@@]1(C2)C(=O)Nc2ncccc21
5. CCN(CC)CCNC(=O)c1ccc2nc(-c3ccccc3)c(-c3ccc(CN4CCC(n5c(=O)[nH]c6ccccc65)CC4)cc3)nc2c1
6. Cc1cc(-c2cnn3c(NCC4CC(C)(O)C4)cc(Oc4cccnc4)nc23)ccc1C(=O)NC1CC1 (stereo unspecified)

inactive
20.9 µM (active)
inactive
inactive
7.42 µM (active)
inactive
